Tested on: HeLa
Assay: Primary qHTS to identify gynecologic anti-cancer compounds using libraries of approved drugs and bioactive compounds (AID 1345084); further: nearly all actives have a fitted effect of over 55% in size
Conditions: Gynecologic cancer cell panel viability, ATPlite luminescence, 48 h; series mostly up to 57.5 µM
Results filed as inconclusive are left out. Activity calls are given as the source filed them. The call rests on the fitted dose curve; in most records, active means well fitted cell-killing curve with a large enough effect; inconclusive means small, poorly fitted or top-dose-only effect, or effect the other way; inactive means flat fitted curve, though single readings scatter.
Your reply should match one of these outcome classes. active, inactive

Examples from the recorded data:
O=C(O)CCC(=O)c1ccc(-c2ccccc2)cc1 :: inactive
CN(C)CCCSc1ccccc1NC(=O)/C=C/c1ccccc1 :: inactive
CCN(CC)CCOCCOC(=O)C(CC)(CC)c1ccccc1 :: inactive
O=C(OCc1ccccc1)c1ccc(O)cc1 :: inactive
C/C(=C\C(=O)OCCCCCCCCC(=O)O)C[C@@H]1OC[C@H](C[C@@H]2O[C@H]2[C@@H](C)[C@H](C)O)[C@@H](O)[C@H]1O :: inactive

Given CC(C)(C)c1ccc(CN2CCN(C(c3ccccc3)c3ccc(Cl)cc3)CC2)cc1 (centres undefined) , state the outcome it received in this test. inactive

Given C[C@H]1O[C@@H](O[C@H]2[C@@H](O)C[C@H](O[C@H]3[C@@H](O)C[C@H](O[C@H]4CC[C@@]5(C)[C@H](CC[C@@H]6[C@@H]5C[C@@H](O)[C@]5(C)[C@@H](C7=CC(=O)OC7)CC[C@]65O)C4)O[C@@H]3C)O[C@@H]2C)C[C@H](O)[C@@H]1O , state the outcome it received in this test. active

Given O=C(O)Cc1cc(I)c(Oc2ccc(O)c(I)c2)c(I)c1 , state the outcome it received in this test. inactive

Given C=C1CC[C@H](O)CC1=C/C=C1\CCC[C@]2(C)[C@@H]([C@H](C)/C=C/[C@H](C)C(C)C)CC[C@@H]12 , state the outcome it received in this test. inactive
